- Test system: NCI-H460 lung
- run-description: NCI-60 one-dose screen, 48 h
- condition-notes: 10 µM unless noted
This is part of a sample that, as a whole, favours compounds with a hit. Of some 83,000 tested, about 20% had one in any assay. Activity calls are given as the source filed them. How the source made its calls: active means growth percent below 10; inactive means the rest.
Response enum: 1 (yes) (active), 0 (no) (inactive)

query: # fetch the recorded call for COc1ccc(Cl)cc1Nc1nc(C(F)(F)F)ccc1C(=O)N/N=C/c1c(Cl)cccc1Cl here
result: 0 (no)

query: Recorded call for COC(=O)C1(NC(=O)CNC(=O)OCc2ccccc2)CCCC1 ?
result: 0 (no)

query: Recorded test outcome, item CC1c2ccccc2-c2ccccc2N1C (stereo unspecified)
result: 0 (no)

query: For this compound, state the assay outcome: C[C@@H]1C[C@@H]([C@@H](CC2CC(=O)NC(=O)C2)OC(=O)CC(=O)c2ccccc2)C(=O)[C@@H](C)C1
result: 0 (no)

query: Fill in: this test's call for CN1CCC[C@@H]1CCO[C@](C)(c1ccccc1)c1ccc(Cl)cc1 is ___
result: 0 (no)

query: Hi team, can someone confirm the assay call for CCCCCCCSc1ncnc2[nH]ncc12 ?
result: 0 (no)

query: Fill in: this test's call for CCOC(=O)/C(=C/CC/C(C)=C/CC/C(C)=C/CCc1ccoc1)CC(=O)N1CCCCC1 is ___
result: 1 (yes)

query: Lab log entry: FC(F)(F)c1ccc(-c2cnc(-c3nn[nH]n3)nc2NC2CCCCCC2)cc1 — outcome as called in the assay?
result: 0 (no)

query: Please indicate how the test categorized c1ccc2c(-c3nc4ccccc4[nH]3)cccc2c1 .
result: 0 (no)

query: Lab log entry: Cc1ccc2nc(-c3ccc(N(C)C)c(Br)c3)cn2c1 — outcome as called in the assay?
result: 0 (no)

query: Query: recorded result category for CCCCCc1c(C)[nH]c(/C=C2\N=C(c3ccc[nH]3)C=C2Oc2ccc(Cl)cc2)c1C in this test
result: 1 (yes)

query: How was CC(=O)c1nn(-c2ccccc2)c(=Nc2ccccc2)cc1C classified in this test?
result: 0 (no)

query: Status in this test for Cc1cn(C(C=O)OC(C=O)CO)c(=O)[nH]c1=O (stereo unspecified) ?
result: 0 (no)

query: Please let me know the test result on file for O=CNc1ccc2c(c1)Cc1cc([N+](=O)[O-])ccc1-2 .
result: 0 (no)

query: Outcome logged for Cc1cc2ccccn2c1C(=O)c1ccc(C(=O)c2ccccc2)cc1 in this assay:
result: 0 (no)

query: # lookup: test call for N/C(=N\C(N)=N\c1nc2ccccc2s1)c1ccnc(Cl)c1
result: 0 (no)

query: What did the test return for CC1C(C)N(C(=O)CCl)c2ccccc2N1C(=O)CCl (stereo unspecified) ?
result: 1 (yes)

query: Kindly provide the recorded test outcome for the following compound: COc1cc(-c2nc3sc4c(c3c(=O)[nH]2)CCCCCC4)cc(OC)c1OC
result: 1 (yes)

query: Hello, I am checking results. What call was entered for COP(=O)(OC)C(c1ccccc1)(c1ccccc1)c1ccccc1 ?
result: 0 (no)

query: What did the test return for COc1cc(/C=C2\CN(S(=O)(=O)c3ccc(C)cc3)C/C(=C\c3cc(CN4CCOCC4)c(O)c(OC)c3)C2=O)cc(CN2CCOCC2)c1O ?
result: 1 (yes)

query: Dear all, I need the recorded test outcome for COC(=O)[C@H](Cc1cn(C)cn1)NC(=O)[C@H](Cc1ccccc1)NC(=O)Nc1cc(C(F)(F)F)cc(C(F)(F)F)c1 , thank you.
result: 1 (yes)

* * *

- Tested on: MOLT-4 leukemia
- run-description: NCI-60 one-dose screen, 48 h
- condition-notes: 10 µM unless noted
This is part of a sample that, as a whole, favours compounds with a hit. Of some 83,000 tested, about 20% had one in any assay. Active and inactive are the calls of the source. How the source made its calls: active means growth percent below 10; inactive means the rest.
Output constraint: value belongs to Y = active, N = inactive

query: What classification did CN1CCN(c2nc3scc(-c4ccccc4)c3c(=O)[nH]2)CC1 end up with in this test?
result: N

query: Answer briefly: the call reported for O=C(C(=O)N1CCOCC1)c1cn(CCCn2cc(C(=O)C(=O)N3CCOCC3)c3ccccc32)c2ccccc12 in this assay.
result: N

query: Per the assay record, what outcome was assigned to CCSc1ncc(Br)c(Sc2nc(N)nc3nc[nH]c23)n1 ?
result: Y

query: # lookup: test call for O=C1C(=O)/C(=C/c2ccccc2)CCCCCC/C1=C/c1ccccc1
result: N

query: Tell me the recorded outcome of this test for O=C1NCCc2c1noc2-c1ccccc1 .
result: N

query: Just curious, what result did CCC(=O)Nc1cc2c(cc1Cl)-c1ccccc1C2 get here?
result: N

query: Which outcome did this test record for the molecule c1ccc(Nc2ccc(Nc3nc(-c4ccccc4)nc4ccccc34)cc2)cc1 ?
result: N

query: Query: recorded result category for Cc1cnc2nc(-c3ccc(N(C)C)cc3)cn2c1 in this test
result: N

query: Kindly provide the recorded test outcome for the following molecule: Cc1nn(-c2ccccc2)cc1/C=C1\SC(N2CCCCC2)=NC1=O
result: N

query: // return assay outcome for COc1ccc(NS(=O)(=O)N2CCCCC2)cc1
result: N

query: // outcome(item) with item = O=C(Nc1cccc(Cl)c1)Nc1cccc(Cl)c1
result: N

query: Status in this test for Cn1c(=O)c2[nH]c(=S)n(Cc3ccccc3)c2n(C)c1=O ?
result: N

query: What call does the record list for COc1ccc(C(=O)COc2cccc(/C=C3\CSc4ccc(Cl)cc4C3=O)c2)cc1 ?
result: Y

query: Recorded call for COc1ccc(Oc2ccccc2NC(=O)CNC(=O)c2cccc3ccccc23)cc1 ?
result: N

query: Status in this test for O=C(CSc1ncc(-c2ccccc2)n1-c1ccccc1)Nc1ccc(-c2nc3ccccc3s2)cc1 ?
result: N

query: State the result this test recorded for O=C(N/N=C/c1cccc(O)c1O)c1ccccc1 .
result: Y

query: // outcome(item) with item = CC(=O)Nc1cc(C(c2ccccc2)c2ccccc2)cc(C(c2ccccc2)c2ccccc2)c1C
result: Y

query: What call does the record list for COc1ccc2c(c1)[n+](=O)c(C(=O)/C=C/c1cc(OC)c(OC)c(OC)c1)c(C)n2[O-] ?
result: N

query: Which result was noted for this molecule in the test: COCCOCCOCCOCCOc1ccc2c(c1)C(=O)c1nc3ncccc3c(=O)n1-2
result: Y

query: Could you kindly confirm the outcome this assay logged for NS(=O)(=O)N(c1cc(C(F)(F)F)cc(C(F)(F)F)c1)C1CCN(Cc2ccc(C(F)(F)F)cc2)CC1 ?
result: N

query: // return assay outcome for CC1CC=CCC1C1OCC(C)(C)CO1 (stereo not given)
result: N

query: # lookup: test call for O=C(/C=C/c1cccc(Nc2ccnc3cc(Cl)ccc23)c1)c1ccc(Cl)cc1
result: N

query: Outcome? CCN(Cc1cccc(S(=O)(=O)[O-])c1)c1ccc(C(=C2C=CC(=[N+](CC)Cc3cccc(S(=O)(=O)O)c3)C=C2)c2ccccc2S(=O)(=O)O)cc1
result: N

query: Could you kindly confirm the outcome this assay logged for CC(=O)O[C@H]1CC[C@@]2(C)C(=CC[C@@H]3[C@@H]2CC[C@]2(C)C(c4cccnc4)=CC[C@@H]32)C1 ?
result: N

query: Assay result, entry NC(=O)c1cc(Cl)ccc1NC(=O)c1ccccc1-c1ccccc1 — outcome?
result: N

query: Name the outcome recorded for CCOC(=O)c1sc(NC(=O)COc2ccc(/C=C3\CCc4cc(OC)ccc4C3=O)cc2)nc1C in the assay.
result: Y

query: What call does the record list for COc1cc(-c2nc3sc4c(c3c(=O)[nH]2)CCCCCC4)cc(OC)c1OC ?
result: N

query: Tell me the recorded outcome of this test for O=C(Nc1ccc2c(c1)C(=O)c1ccccc1-2)c1ccccc1 .
result: N

query: Status in this test for COc1ccc(N2CCN(CC(=O)N3CCN(c4nnc(-c5ccc(Cl)cc5)c(-c5ccc(Cl)cc5)n4)CC3)CC2)cc1 ?
result: Y

query: Please indicate how the test categorized COC(=O)[C@H](Cc1cn(C)cn1)NC(=O)[C@H](C)NC(=O)Nc1cc(C(F)(F)F)cc(C(F)(F)F)c1 .
result: Y

query: Name the outcome recorded for CCN(CC)CCOCC[C@H]1CC[C@H]2[C@@H]3[C@H](C)Cc4cc(OS(N)(=O)=O)ccc4[C@H]3CC[C@]12C in the assay.
result: Y

query: Recorded call for CN(C)c1ncnc2c1ncn2C1CCCCO1 (stereo not given) ?
result: N

query: How was CC[C@@H](C)/C=C(C)/C=C/C(O)=C1\C(=O)N[C@@H](Cc2ccc(OC(=O)[C@@](OC)(c3ccccc3)C(F)(F)F)cc2)C1=O classified in this test?
result: N

query: Recorded test call requested for COc1ccc(Cl)cc1Nc1nc(C(F)(F)F)ccc1C(=O)N/N=C/c1c(Cl)cccc1Cl
result: N

query: What did this assay record as the result for COc1cccc(N2CCN(CC(=O)N3CCN(c4nnc(-c5ccc(Cl)cc5)c(-c5ccc(Cl)cc5)n4)CC3)CC2)c1 ?
result: N

query: What did this assay record as the result for COc1cc(/C=C/C(=O)c2c(C)n([O-])c3ccc(Cl)cc3[n+]2=O)cc(OC)c1OC ?
result: Y

query: Name the outcome recorded for COc1ccc2c(c1)C(=Nc1cc(OC)c(OC)c(OC)c1)C(=O)N2 in the assay.
result: N

query: Tell me the assay call for O=C1Nc2ccc(Cl)cc2[C@@](C#CC2CC2)(C(F)(F)F)O1 please.
result: N

query: For CCOc1cc(/C=C/C(=O)CC(=O)/C=C/c2ccc(OC(=O)CNc3nc4ccc(OC)cc4s3)c(OCC)c2)ccc1OC(=O)CNc1nc2ccc(OC)cc2s1 , what call appears in the results of this test?
result: Y

query: Any idea what this test logged for CN(C)c1ccc(-c2nc3ncc(Br)cc3o2)cc1 ?
result: N
